# assayed target: T1, ACKR3-YFP (wildtype ACKR3 fused C-terminally to YFP) (UniProt P25106 1-362)
# T1 construct: atypical chemokine receptor 3 (ACKR3, also known as CXCR7); also called CXCR7; receptor-YFP fusion; source: HEK293, transiently transfected (polyethyleneimine), on or in cells; not shown: YFP, C-terminal, kept
# T1 sequence (P25106 whole entry, the tested form may be a part): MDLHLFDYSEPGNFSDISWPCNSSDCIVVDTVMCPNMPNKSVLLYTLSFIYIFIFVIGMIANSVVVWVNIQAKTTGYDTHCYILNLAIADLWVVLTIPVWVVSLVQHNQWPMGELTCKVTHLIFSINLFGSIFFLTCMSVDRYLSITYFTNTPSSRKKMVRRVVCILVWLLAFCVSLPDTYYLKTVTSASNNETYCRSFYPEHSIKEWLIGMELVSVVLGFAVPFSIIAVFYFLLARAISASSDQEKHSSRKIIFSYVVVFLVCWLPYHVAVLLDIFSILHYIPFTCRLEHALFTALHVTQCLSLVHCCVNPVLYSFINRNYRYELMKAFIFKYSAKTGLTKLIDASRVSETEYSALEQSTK
# measurement protocol: radioligand binding; HEK293 cells expressing ACKR3-YFP or mutants, pretreated 5 min at 37 °C with 100 μM phenylarsine oxide; 50 pM 125I-CXCL12 tracer in 50 mM HEPES pH 7.4, 5 mM MgCl2, 1 mM CaCl2, 0.2% BSA, with or without unlabeled CXCL12 or CXCL11, 30 min at 37 °C; bound label counted in a γ counter; IC50 taken as proxy for ligand affinity
# test settings: one partner purified
result type: IC50 (nM)
Number only, in nM; omit the unit.

Data point: CXCL11 (unlabeled recombinant chemokine) (ligand, human, UniProt O14625 22-94, looked up, chemokine CXCL11 (I-TAC); called human CXCL11 in the text on scavenging by MEFs; also called I-TAC; unlabeled CXCL11; source: recombinant; gift from Amanda Nevins and Brian Volkman or from PeproTech Inc) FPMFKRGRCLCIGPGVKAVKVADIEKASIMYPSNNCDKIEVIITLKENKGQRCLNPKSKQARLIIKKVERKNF ; IC50 = 39.1
